- measurement-target: Kras and SOS1 (biotin-tagged human Kras loaded with GDP, His-tagged human SOS1) (Homo sapiens, UniProt P01116, G12D)
- Construct: made in house; host or cells: E. coli (stated for Kras only)
- Sequence (P01116 1-188 isoform P01116-2 G12D): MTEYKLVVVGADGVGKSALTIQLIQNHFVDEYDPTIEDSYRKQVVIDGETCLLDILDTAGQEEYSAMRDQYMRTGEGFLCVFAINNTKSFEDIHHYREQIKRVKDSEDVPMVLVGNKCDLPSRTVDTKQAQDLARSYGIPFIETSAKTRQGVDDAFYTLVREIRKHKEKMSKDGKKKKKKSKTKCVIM
- test: Protein-protein interaction inhibition between Kras and SOS1 (KrasGl2D-SOS PPI) using AlphaScreen
- Assay type: binding
- applied-conditions: AlphaScreen; biotin-tagged human Kras loaded with GDP, His-tagged human SOS1; read-out: KRAS G12D-SOS PPI IC50
- Description: Protein-Protein Interaction Inhibition Between Kras and SOS1 (KrasGl2D-SOS PPI) Using AlphaScreen Protein-protein interaction inhibition (PPI) between Kras and SOS1 was measured by energy transfer from nickel-conjugated donor beads to streptavidin-conjugated acceptor beads using biotin-tagged human Kras expressed in E. coli and loaded with GDP after purification and His-tagged human SOS1 enzyme. […]
Positions of bridges follow the written chain, without caps; N, C: chain ends. Non-standard residues stand in square brackets, D forms with d. Residues, ends and D or L forms follow the SMILES beside them. *: point of attachment. hPhe(3-Cl-4-CF3) = N[C@@H](CCc1ccc(C(F)(F)F)c(Cl)c1)C(=O)O; hPhe(4-CF3) = N[C@@H](CCc1ccc(C(F)(F)F)cc1)C(=O)O; NMePhe(4-Cl) = CN[C@@H](Cc1ccc(Cl)cc1)C(=O)O; hPhe(4-F) = N[C@@H](CCc1ccc(F)cc1)C(=O)O; NMehPhe = CN[C@@H](CCc1ccccc1)C(=O)O; NMeCha = CN[C@@H](CC1CCCCC1)C(=O)O; NMeChg = CN[C@H](C(=O)O)C1CCCCC1; NMeD = CN[C@@H](CC(=O)O)C(=O)O; NMeL = CN[C@@H](CC(C)C)C(=O)O; Morpholide = C1CN(*)CCO1; NMeA = CN[C@@H](C)C(=O)O; Piperidide = C1CCN(*)CC1; Pyrrolidide = C1CCN(*)C1; Ac5c = NC1(C(=O)O)CCCC1; Ac4c = NC1(C(=O)O)CCC1; Sar = CNCC(=O)O
Hi there, I'd appreciate the recorded IC50 for every entry that follows.
Just the number plus its unit, please.

[ask] Note IC50 for the compound shown: CC[C@H](C)[C@@H]1NC(=O)[C@H](C)N(C)C(=O)C[C@@H](C(=O)N2CCCCC2)N(C)C(=O)[C@H](C2CCCCC2)N(C)C(=O)C2(CCCC2)NC(=O)[C@@H]2CCCN2C(=O)[C@H](CCc2ccc(F)cc2)NC(=O)CN(C)C(=O)[C@H](CC2CCCCC2)N(C)C(=O)CN(C)C(=O)CN(C)C1=O [Compound 618] ([NMeA]I[Sar][Sar][NMeCha][Sar][hPhe(4-F)]P[Ac5c][NMeChg][NMeD]-Piperidide; lactam N-11)
[reply] 2.4 nM

[ask] Note IC50 for the compound shown: CC[C@H](C)[C@@H]1NC(=O)[C@H](C)N(C)C(=O)C[C@@H](C(=O)N2CCCC2)NC(=O)[C@H](CC(C)C)N(C)C(=O)[C@H](CCc2ccccc2)N(C)C(=O)[C@H](CC(C)C)NC(=O)[C@H](CCc2ccc(C(F)(F)F)cc2)NC(=O)CN(C)C(=O)[C@H](Cc2ccc(Cl)cc2)N(C)C(=O)CN(C)C(=O)CN(C)C1=O [Compound 878] ([NMeA]I[Sar][Sar][NMePhe(4-Cl)][Sar][hPhe(4-CF3)]L[NMehPhe][NMeL]D-Pyrrolidide; lactam N-11)
[reply] 320 nM

[ask] Note IC50 for the compound shown: CC[C@H](C)[C@@H]1NC(=O)[C@H](CC(C)C)N(C)C(=O)C[C@@H](C(=O)N2CCOCC2)N(C)C(=O)[C@H](C2CCCCC2)N(C)C(=O)C2(CCC2)NC(=O)[C@@H]2CCCN2C(=O)[C@H](CCc2ccc(C(F)(F)F)c(Cl)c2)NC(=O)CN(C)C(=O)[C@H](CC2CCCCC2)N(C)C(=O)CN(C)C(=O)CN(C)C1=O [Compound 1875] ([NMeL]I[Sar][Sar][NMeCha][Sar][hPhe(3-Cl-4-CF3)]P[Ac4c][NMeChg][NMeD]-Morpholide; lactam N-11)
[reply] 0.42 nM
